Test system: A549 NSCLC
Test: NCI tumour cell line growth inhibition, 48 h
Recorded TGI values for a group of molecules are listed next.

O=C(CCCc1c[nH]c2ccccc12)NC1CC(=O)c2c(Br)sc(Br)c21 (stereo not given)    > 100 µM

Kindly review the next molecule as well.
[ask] What TGI appears in the records for this molecule with A549 NSCLC? `C[C@@H](c1ccc2nccn2c1)n1nnc2ncc(-c3cnn(C)c3)nc21`
[reply] > 100 µM

====

Test system: BT-549 breast
Test: NCI tumour cell line growth inhibition, 48 h
Recorded TGI values for a group of compounds are listed next.
# output: bare number, implied unit µM

Worked set:
CC(NC1=CC(=O)c2ncccc2C1=O)C(O)c1ccccc1 (stereo unspecified)    7.25
COc1ccc(N(C)c2nc(C)nc3ccccc23)cc1    36.9
COc1cc[nH]c1/C=C1\C(=O)Nc2ccc(F)c(C#C[C@@H](O)[C@@H](N)[C@@H](C)O)c21    1.65
O=C1C2CC(Cl)C(SSC3CC4C(=O)N(SC(Cl)(Cl)C(Cl)Cl)C(=O)C4CC3Cl)CC2C(=O)N1SC(Cl)(Cl)C(Cl)Cl (stereo unspecified)    3.41
O=C1/C(=C\c2ccc(Cl)cc2)CN(C(=S)Nc2ccccc2)C/C1=C\c1ccc(Cl)cc1    1.77
Cc1cc(C)c(S(=O)(=O)N[C@@H](/C=C(\Br)CO)C(C)C)c(C)c1    85.2
CC12OC(C(=O)C13CC3)C1C(=O)c3ccccc3C(=O)C12 (stereo unspecified)    76.9
C[C@H]1[C@H](OC(=O)CCC(=O)O)O[C@@H]2O[C@]3(C)CC[C@H]4[C@H](C)CC[C@@H]1[C@@]24OO3    4.55
CN(C)CCOc1ccc(I)cc1Cc1ccccc1    28.6
CC(=O)N1c2ccccc2C(C)(C)OC1C(Cl)(Cl)Cl (stereo unspecified)    81

[ask] Any idea what its TGI is? The compound is `COc1ccc2c(c1)c1nn(CCN(C)C)c3ccc4c(=O)n(CCN(C)C)c(=O)n2c4c13`
[reply] 2.6

====

Tested on: MALME-3M melanoma
Test: NCI tumour cell line growth inhibition, 48 h
Recorded GI50 values for a group of compounds are listed next.

Worked set:
CCOC(=O)/N=c1\ss/c(=N\C(=S)N(C)C)n1-c1ccccc1    > 100 µM
Cc1cc(NC(=O)C2c3ccccc3C(=O)N(CC(C)C)C2c2cccs2)no1 (centres undefined)    > 100 µM
CC1(C)CC(=O)C2=C(C1)NC(SSC1=C(C#N)C(c3ccccc3)C3=C(CC(C)(C)CC3=O)N1)=C(C#N)C2c1ccccc1 (centres undefined)    27.3 µg/mL

Kindly review the next compound as well.
[ask] Any idea what its GI50 is? The compound is CCCCCCCCCCCCCCCCCCNC(=O)[C@H]1CSC(c2ccc(OC)c(F)c2)N1 (some centres undefined)
[reply] > 26.2 µM

====

System: SW-620 colon
Test: NCI tumour cell line growth inhibition, 48 h
Experimental Readout: TGI

Worked set:
N#Cc1ccccc1NC(=O)C(=O)C(C(=O)c1ccccc1-c1ccccc1)C1OC(=O)c2ccccc21 (stereo unspecified)    75.5 µM
COC(=O)Nc1nc2ccc(C(=O)c3ccc[nH]3)cc2[nH]1    > 100 µM
Cc1c2c(c(C)n1-c1ccccc1)C(=O)N(CCSC(=N)N)C2=O    > 100 µM

[ask] Any idea what its TGI is? The compound is COc1ncnc2c1cnn2Cc1cn(COCC(O)CO)nn1 (stereo unspecified)
[reply] > 100 µM

[ask] # repeat for CC1(C)CC(=O)C2=C(C1)NC(SSC1=C(C#N)C(c3ccccc3)C3=C(CC(C)(C)CC3=O)N1)=C(C#N)C2c1ccccc1 (stereo unspecified)
[reply] 51.8 µg/mL

[ask] # repeat for `Cc1cn(CC2=NCCN2)c(=O)[nH]c1=O`
[reply] > 100 µM

[ask] # repeat for `Cc1ccc(S(=O)(=O)N/N=C/C(Br)=C(/Br)C(=O)O)cc1`
[reply] 14 µM

[ask] # repeat for `O=C1CC(=O)N(C2CCCCC2)C(=O)N1c1ccccc1S(=O)(=O)Oc1ccccc1`
[reply] > 100 µM
